assay: Metabolic stability test: liver microsomal stability assay; assay type: in vitro ADME, mouse; settings: mouse liver microsomes 0.5 mg protein/mL, compound 1 µM, absence of NADPH
Starred links: 1 amine or outer side, 2 acyl side, 3 side chain; linkers in the order of their positions; H or OH if unused. Positions of bridges follow the written chain, without caps; N, C: chain ends. Non-standard residues stand in square brackets, D forms with d. Residues, ends and D or L forms follow the SMILES beside them. *: point of attachment. NMeF = CN[C@@H](Cc1ccccc1)C(=O)O; NMeGABA = CN(CCCC(=O)[*:2])[*:1]; NMeI = CC[C@H](C)[C@H](NC)C(=O)O; NMeT = CN[C@H](C(=O)O)[C@@H](C)O; hPhe = N[C@@H](CCc1ccccc1)C(=O)O; NMeβAla = CN(CCC(=O)[*:2])[*:1]; NMeL = CN[C@@H](CC(C)C)C(=O)O; dNMeV = CN[C@@H](C(=O)O)C(C)C; NMeV = CN[C@H](C(=O)O)C(C)C; d(β3hA) = C[C@@H](N)CC(=O)O; NMeAbu = CC[C@H](NC)C(=O)O; NMeA = CN[C@@H](C)C(=O)O; Piperidide = C1CCN(*)CC1; Abu = CC[C@H](N)C(=O)O; βAla = NCCC(=O)O; Sar = CNCC(=O)O; tBu = CC(C)(C)*
Observation type: Mouse Hepatic Microsome CLh,int NADPH(-) (µL/min/mg Protein)
Report as a plain number; the unit µL/min/mg Protein is understood.

Some solved cases for reference:
CC[C@H](C)[C@H]1C(=O)N[C@@H]([C@@H](C)O)C(=O)N(C)CC(=O)N(C)[C@@H](CC(C)C)C(=O)N(C)[C@@H](Cc2ccccc2)C(=O)N[C@H](C(=O)N2CCCCC2)CC(=O)N(C)[C@@H](C)C(=O)N[C@@H](CC(C)C)C(=O)N(C)[C@@H](Cc2ccccc2)C(=O)N(C)CCC(=O)N(C)[C@@H](CC(C)C)C(=O)N(C)CCC(=O)N[C@@H](CC(C)C)C(=O)N1C [pd120] ([NMeA]L[NMeF][NMeβAla][NMeL][NMeβAla]L[NMeI]T[Sar][NMeL][NMeF]D-Piperidide; lactam N-13) | 18.4
CC[C@@H]1NC(=O)[C@H](CC(C)C)N(C)C(=O)[C@H]([C@@H](C)CC)NC(=O)CN(C)C(=O)C[C@@H](C)NC(=O)[C@H](C(C)C)N(C)C(=O)[C@H](COC(C)(C)C)NC(=O)[C@H](CC(C)C)N(C)C(=O)[C@H](Cc2ccccc2)N(C)C(=O)[C@H](C)NC(=O)[C@H](C(C)C)NC(=O)CN(C)C(=O)[C@H]([C@@H](C)O)NC(=O)[C@H](CC(C)C)N(C)C1=O [pd011] (cyclo(A[NMeF][NMeL]S(tBu)[NMeV][d(β3hA)][Sar]I[NMeL][Abu][NMeL]T[Sar]V)) | 22.9
CC[C@@H]1NC(=O)[C@H]([C@@H](C)O)N(C)C(=O)[C@H](CC(C)C)N(C)C(=O)[C@H]([C@@H](C)CC)NC(=O)[C@H](Cc2ccccc2)N(C)C(=O)CN(C)C(=O)C[C@@H](C(=O)N2CCCCC2)NC(=O)[C@H](C(C)C)N(C)C(=O)[C@H](CC)NC(=O)[C@H](COC(C)(C)C)NC(=O)[C@H](C)N(C)C(=O)[C@H](CC)NC(=O)[C@H](CC(C)C)N(C)C(=O)[C@H](CCc2ccccc2)NC1=O [pd028] ([Sar][NMeF]I[NMeL][NMeT][Abu][hPhe][NMeL][Abu][NMeA]S(tBu)[Abu][NMeV]D-Piperidide; lactam N-14) | 22.1

Challenge: Could you share which Mouse Hepatic Microsome CLh,int NADPH(-) value was measured for CC[C@H](C)[C@@H]1NC(=O)[C@H](CC(C)C)N(C)C(=O)[C@H](CC(C)C)NC(=O)[C@H](C)N(C)C(=O)C[C@@H](C)NC(=O)[C@H](CC(C)C)NC(=O)[C@H](CC(C)C)N(C)C(=O)CN(C)C(=O)[C@H](C(C)C)NC(=O)[C@H]([C@@H](C)CC)N(C)C(=O)[C@H](COC(C)(C)C)NC(=O)[C@H](CC(C)C)N(C)C(=O)CCNC(=O)[C@H](Cc2ccccc2)N(C)C1=O [pd007] (cyclo(I[NMeF][βAla][NMeL]S(tBu)[NMeI]V[Sar][NMeL]L[d(β3hA)][NMeA]L[NMeL])) ?
Response given: 34.9

Challenge: Could you share which Mouse Hepatic Microsome CLh,int NADPH(-) value was measured for CC[C@@H]1NC(=O)[C@H](C)N(C)C(=O)[C@H](CC(C)C)N(C)C(=O)[C@H]([C@@H](C)O)N(C)C(=O)[C@H](CC(C)C)N(C)C(=O)[C@H](C)NC(=O)[C@H](Cc2ccccc2)N(C)C(=O)CN(C)C(=O)C[C@@H](C(=O)N2CCCCC2)NC(=O)[C@H](C(C)C)N(C)C(=O)[C@H](C)NC(=O)[C@@H]2CCCN2C(=O)[C@H](C(C)C)NC(=O)[C@H](Cc2ccccc2)N(C)C1=O [pd046] ([Sar][NMeF]A[NMeL][NMeT][NMeL][NMeA][Abu][NMeF]VPA[NMeV]D-Piperidide; lactam N-14) ?
Response given: 5.4

Challenge: Could you share which Mouse Hepatic Microsome CLh,int NADPH(-) value was measured for CC[C@H]1C(=O)N(C)CC(=O)N[C@@H]([C@@H](C)O)C(=O)N(C)[C@@H](CC(C)C)C(=O)N[C@@H](CC(C)C)C(=O)N(C)[C@@H](Cc2ccccc2)C(=O)N(C)[C@@H](C(C)C)C(=O)N2CCC[C@H]2C(=O)N(C)[C@@H](C)C(=O)N(C)[C@@H](C(C)C)C(=O)N[C@H](C(=O)N2CCCCC2)CC(=O)N(C)[C@@H](CC(C)C)C(=O)N(C)[C@@H](Cc2ccccc2)C(=O)N1C [pd126] ([NMeL][NMeF][NMeAbu][Sar]T[NMeL]L[NMeF][NMeV]P[NMeA][NMeV]D-Piperidide; lactam N-13) ?
Response given: 18.2

Challenge: Could you share which Mouse Hepatic Microsome CLh,int NADPH(-) value was measured for CC[C@@H]1NC(=O)[C@H](C(C)C)N(C)C(=O)[C@H](CC(C)C)NC(=O)[C@H](Cc2ccccc2)N(C)C(=O)[C@@H](C(C)C)N(C)C(=O)C[C@@H](C(=O)N2CCCCC2)NC(=O)[C@H](CC(C)C)NC(=O)[C@H](C(C)C)N(C)C(=O)[C@H](Cc2ccccc2)N(C)C(=O)[C@H](CC(C)C)NC(=O)[C@H](CC(C)C)N(C)C(=O)[C@H](C)N(C)C(=O)[C@H]([C@@H](C)O)NC(=O)[C@H](CC(C)C)N(C)C1=O [pd033] ([dNMeV][NMeF]L[NMeV][Abu][NMeL]T[NMeA][NMeL]L[NMeF][NMeV]LD-Piperidide; lactam N-14) ?
Response given: 34.1

Challenge: Could you share which Mouse Hepatic Microsome CLh,int NADPH(-) value was measured for CC[C@H](C)[C@@H]1NC(=O)[C@H](C)N(C)C(=O)CCCN(C)C(=O)C[C@@H](C)NC(=O)[C@H](C(C)C)N(C)C(=O)[C@H](CCc2ccccc2)NC(=O)[C@H](C)N(C)C(=O)[C@H]([C@@H](C)O)N(C)C(=O)[C@H](CC(C)C)N(C)C(=O)[C@H](C(C)C)NC(=O)[C@H](Cc2ccccc2)N(C)C(=O)[C@H](C)N(C)C(=O)[C@H](C(C)C)N(C)C1=O [pd137] (cyclo(I[NMeV][NMeA][NMeF]V[NMeL][NMeT][NMeA][hPhe][NMeV][d(β3hA)][NMeGABA][NMeA])) ?
Response given: 7.5

====

Test: Mouse PK test: plasma concentration after intravenous or oral administration
Assay type: in vivo, mice (C57BL/6J)
Details: C57BL/6J, in vivo, male mice, oral administration, 50 mg/kg, read-out: Cmax
Protocol: We evaluated the plasma concentration changes after intravenous or oral administration of four types of peptides that satisfy these conditions to mice. To male mice (C57BL/6J, 10 weeks old, purchased from Charles River Laboratories Japan, Inc.: 3 mice per group), the compound was administered intravenously at a dose of 1 mg/kg or orally at a dose of 50 mg/kg, and blood was collected from the jugular vein over time up to 24 hours after administration. […]
Starred links: 1 amine or outer side, 2 acyl side, 3 side chain; linkers in the order of their positions; H or OH if unused. Non-standard residues stand in square brackets, D forms with d. Residues, ends and D or L forms follow the SMILES beside them. *: point of attachment. NMedβ3hAla = C[C@H](CC(=O)[*:2])N(C)[*:1]; NMeF = CN[C@@H](Cc1ccccc1)C(=O)O; NMeI = CC[C@H](C)[C@H](NC)C(=O)O; hPhe = N[C@@H](CCc1ccccc1)C(=O)O; NMeβAla = CN(CCC(=O)[*:2])[*:1]; NMeL = CN[C@@H](CC(C)C)C(=O)O; Abu = CC[C@H](N)C(=O)O; Sar = CNCC(=O)O; tBu = CC(C)(C)*
Observation type: Cmax (ng/mL)
Report as a plain number; the unit ng/mL is understood.

Challenge: Could you share which Cmax value was measured for CC[C@@H]1NC(=O)[C@H](CC(C)C)N(C)C(=O)[C@H](COC(C)(C)C)NC(=O)[C@H]([C@@H](C)CC)N(C)C(=O)[C@H](CCc2ccccc2)NC(=O)[C@H](Cc2ccccc2)N(C)C(=O)[C@H](C(C)C)NC(=O)[C@H](CC(C)C)N(C)C(=O)[C@H](CC(C)C)NC(=O)CCN(C)C(=O)C[C@@H](C)N(C)C(=O)CN(C)C(=O)[C@H](CC(C)C)N(C)C(=O)[C@@H]2CCCN2C1=O [pd065] (cyclo([Abu]P[NMeL][Sar][NMedβ3hAla][NMeβAla]L[NMeL]V[NMeF][hPhe][NMeI]S(tBu)[NMeL])) ?
Response given: 11000
